molecular target: Human Cav3.1 calcium channel (Homo sapiens, UniProt O43497); construct: expressed in transfected cells; host or cells: HEK-293 natClytin/TASK1+Cav3.1 cell line; assay: Human Cav3.1 calcium channel patch clamp assay (SyncroPatch 384PE; single point and IC50, voltage dependent block); format: cell-based; conditions: voltage dependent block (VDB); HEK-293 natClytin/TASK1+Cav3.1 cell line; read-out: Cav3.1 IC50
Sequence (O43497 whole entry): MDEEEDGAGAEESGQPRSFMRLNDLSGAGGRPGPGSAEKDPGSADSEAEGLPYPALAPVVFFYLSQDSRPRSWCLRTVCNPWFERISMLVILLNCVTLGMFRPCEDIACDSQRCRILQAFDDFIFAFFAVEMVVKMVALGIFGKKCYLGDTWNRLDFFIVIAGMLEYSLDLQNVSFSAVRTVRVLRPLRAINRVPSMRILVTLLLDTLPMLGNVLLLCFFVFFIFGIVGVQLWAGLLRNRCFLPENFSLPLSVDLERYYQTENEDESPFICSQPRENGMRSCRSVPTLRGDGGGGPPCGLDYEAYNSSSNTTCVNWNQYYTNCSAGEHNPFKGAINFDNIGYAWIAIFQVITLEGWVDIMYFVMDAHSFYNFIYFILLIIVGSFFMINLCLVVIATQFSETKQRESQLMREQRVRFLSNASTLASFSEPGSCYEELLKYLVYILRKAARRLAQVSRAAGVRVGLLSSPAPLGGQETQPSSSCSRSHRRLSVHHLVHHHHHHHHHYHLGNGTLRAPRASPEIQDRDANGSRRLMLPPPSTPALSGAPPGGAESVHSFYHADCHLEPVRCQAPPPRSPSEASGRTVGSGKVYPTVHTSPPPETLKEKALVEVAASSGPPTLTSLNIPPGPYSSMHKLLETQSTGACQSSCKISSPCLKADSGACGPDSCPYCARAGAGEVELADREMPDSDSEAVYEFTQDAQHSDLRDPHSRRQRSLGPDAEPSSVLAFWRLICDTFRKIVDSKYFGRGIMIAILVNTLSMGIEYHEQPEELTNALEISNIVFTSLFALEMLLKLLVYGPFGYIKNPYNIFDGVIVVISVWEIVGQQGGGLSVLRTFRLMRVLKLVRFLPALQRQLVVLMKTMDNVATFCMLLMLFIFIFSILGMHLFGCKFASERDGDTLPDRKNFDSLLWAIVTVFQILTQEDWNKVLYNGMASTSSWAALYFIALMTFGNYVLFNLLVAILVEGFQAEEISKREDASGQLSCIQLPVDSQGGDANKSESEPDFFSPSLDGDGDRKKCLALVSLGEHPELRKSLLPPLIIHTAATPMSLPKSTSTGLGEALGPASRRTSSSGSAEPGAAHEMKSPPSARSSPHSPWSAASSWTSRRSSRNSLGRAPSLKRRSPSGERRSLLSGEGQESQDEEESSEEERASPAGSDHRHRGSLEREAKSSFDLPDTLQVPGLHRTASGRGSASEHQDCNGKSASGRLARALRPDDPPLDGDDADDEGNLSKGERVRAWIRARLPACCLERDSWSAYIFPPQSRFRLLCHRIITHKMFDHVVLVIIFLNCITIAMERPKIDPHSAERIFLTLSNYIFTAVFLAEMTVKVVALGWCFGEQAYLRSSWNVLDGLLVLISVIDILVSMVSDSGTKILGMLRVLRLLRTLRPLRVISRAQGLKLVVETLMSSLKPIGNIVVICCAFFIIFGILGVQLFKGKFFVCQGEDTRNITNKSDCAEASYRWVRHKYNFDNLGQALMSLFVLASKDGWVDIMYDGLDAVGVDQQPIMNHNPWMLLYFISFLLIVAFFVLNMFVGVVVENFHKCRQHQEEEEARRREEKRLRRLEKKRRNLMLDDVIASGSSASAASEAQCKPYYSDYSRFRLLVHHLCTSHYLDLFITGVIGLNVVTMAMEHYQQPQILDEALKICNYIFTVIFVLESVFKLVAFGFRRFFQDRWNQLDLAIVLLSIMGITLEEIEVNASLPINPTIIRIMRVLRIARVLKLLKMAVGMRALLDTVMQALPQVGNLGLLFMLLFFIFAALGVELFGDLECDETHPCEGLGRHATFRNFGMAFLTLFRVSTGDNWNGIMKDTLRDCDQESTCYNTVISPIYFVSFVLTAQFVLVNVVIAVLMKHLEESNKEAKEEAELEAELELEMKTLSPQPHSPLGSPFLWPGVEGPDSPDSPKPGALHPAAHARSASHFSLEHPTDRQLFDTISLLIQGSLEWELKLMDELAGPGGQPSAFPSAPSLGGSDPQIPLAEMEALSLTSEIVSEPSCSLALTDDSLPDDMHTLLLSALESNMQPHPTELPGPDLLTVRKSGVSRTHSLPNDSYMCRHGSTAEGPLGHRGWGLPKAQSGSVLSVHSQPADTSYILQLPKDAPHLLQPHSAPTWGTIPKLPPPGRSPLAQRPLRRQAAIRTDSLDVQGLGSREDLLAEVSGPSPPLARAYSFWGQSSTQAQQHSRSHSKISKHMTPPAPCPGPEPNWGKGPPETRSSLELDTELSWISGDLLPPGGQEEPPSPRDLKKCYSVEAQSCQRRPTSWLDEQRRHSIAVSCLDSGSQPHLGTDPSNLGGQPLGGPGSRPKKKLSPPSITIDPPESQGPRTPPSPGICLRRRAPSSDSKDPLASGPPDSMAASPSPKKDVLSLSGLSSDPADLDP
pIC50: −log10 of the molar value.

{"COMPOUND": "Cc1cc(F)cc2[nH]c(CN3CC4CCC(C3)N4CC(=O)NC(C)(C)C)nc12", "pIC50": 6.68}
{"COMPOUND": "Cc1ccc2ccnc(NCC3CCN(CC(=O)NC(C)(C)C)CC3)c2n1", "pIC50": 5.35}
{"COMPOUND": "CC(C)(C)NC(=O)CN1CC2CC1CN2CC(=O)Nc1cc(F)cc(Cl)c1 (stereo not shown)", "pIC50": 6.92}
{"COMPOUND": "CC(C)(C)NC(=O)CN1C[C@H]2C[C@@H]1CN2CC(=O)NC12CC3CC(CC(C3)C1)C2", "pIC50": 6.29}
{"COMPOUND": "CC(C)(C)NC(=O)CN1C2CC1CN(C(=O)c1nc3c(Cl)cc(F)cc3[nH]1)C2", "pIC50": 5.72}
{"COMPOUND": "CC(C)(C)NC(=O)CN1C2CC1CN(CC(=O)NC13CC4CC(CC(C4)C1)C3)C2", "pIC50": 6.39}
{"COMPOUND": "COC12CC3CC(CC(NC(=O)CN4C[C@@H]5C[C@H]4CN5CC(=O)NC(C)(C)C)(C3)C1)C2", "pIC50": 5.87}
{"COMPOUND": "Cc1cc(Cl)cc(NC(=O)CN2CC3CC(C2)N3CC(=O)NC(C)(C)C)c1", "pIC50": 6.70}
{"COMPOUND": "O=C(CN1C[C@@H]2C[C@H]1CN2CCC1CCOCC1)NC12CC3CC(CC(C3)C1)C2", "pIC50": 5.48}
{"COMPOUND": "COC(=O)C(C)(C)N(C)C(=O)CN1C2CCC1CN(Cc1nc3c(Cl)cc(F)cc3[nH]1)C2", "pIC50": 6.43}
{"COMPOUND": "COc1cc(NC(=O)CN2CC3CC(C2)N3CC(=O)NC2(C(F)(F)F)CC2)cc(F)c1F", "pIC50": 6.88}
{"COMPOUND": "CC(C)(C)NC(=O)CN1C2CC1CN(C(=O)NC13CC4CC(CC(C4)C1)C3)C2", "pIC50": 5.05}
{"COMPOUND": "Cc1cc(NC(=O)CN2C[C@@H]3C[C@H]2CN3CC(=O)NC(C)(C)C)ccc1F", "pIC50": 6.35}
{"COMPOUND": "Fc1cc(Cl)c2nc(CN3CCN(Cc4ccc5c(c4)OCCO5)CC3)[nH]c2c1", "pIC50": 6.67}
{"COMPOUND": "CC(C)(C)NC(=O)CN1C2CC1CN(CC(=O)NC13CCC(CC1)C3)C2", "pIC50": 5.72}
{"COMPOUND": "CC(C)(C)NC(=O)CN1C2CC1CN(CC(=O)Nc1ccc(F)c(C(F)(F)F)c1)C2", "pIC50": 6.00}

----------
target: Human Cav3.1 calcium channel (Homo sapiens, UniProt O43497); construct: expressed in transfected cells; host or cells: HEK-293 natClytin/TASK1+Cav3.1 cell line; test: Human Cav3.1 calcium channel patch clamp assay (SyncroPatch 384PE; single point and IC50, voltage dependent block); assay type: cell-based; details: voltage dependent block (VDB); HEK-293 natClytin/TASK1+Cav3.1 cell line; read-out: Cav3.1 IC50
Criterion: IC50 strictly less than 300 nM. Met: Condition met. Not met: Condition not met.

{"COMPOUND": "CC(C)(C)NC(=O)CN1CCN(CC(=O)Nc2cc(F)cc(Cl)c2)C2(COC2)C1", "ASSIGNED LABEL": "Condition not met"}
{"COMPOUND": "Fc1ccc(Cl)c2nc(CN3CCN(CC(F)C4CCCCC4)CC3)[nH]c12 (centres unmarked)", "ASSIGNED LABEL": "Condition met"}
{"COMPOUND": "CC1(OC(=O)CN2C3CC2CN(Cc2nc4c(Cl)cc(F)cc4[nH]2)C3)CC1", "ASSIGNED LABEL": "Condition met"}
{"COMPOUND": "CC(C)(NC(=O)CN1C2CC1CN(Cc1nc3c(OC(F)F)ccc(F)c3[nH]1)C2)C(F)(F)F", "ASSIGNED LABEL": "Condition met"}
{"COMPOUND": "CC(C)(C)NC(=O)CN1C[C@@H]2C[C@H]1CN2CC(=O)NC12CC3CC(C1)CC(OC(F)F)(C3)C2", "ASSIGNED LABEL": "Condition not met"}
{"COMPOUND": "Fc1ccc(Cl)c2nc(CN3CCN(CC(F)(F)C4CCCCC4)CC3)[nH]c12", "ASSIGNED LABEL": "Condition not met"}
{"COMPOUND": "O=C(CN1CC2CC1CN2CCNC(=O)C1(C(F)(F)F)CC1)Nc1ccc(F)c(Cl)c1 (centres unmarked)", "ASSIGNED LABEL": "Condition not met"}

Numbers sourced from patent US20250213558A1.
